Form field: pIC50 (one value per entry).
Biological target: recombinant human Myt1 (Homo sapiens (Human), UniProt Q99640)
Sequence (Q99640 whole entry): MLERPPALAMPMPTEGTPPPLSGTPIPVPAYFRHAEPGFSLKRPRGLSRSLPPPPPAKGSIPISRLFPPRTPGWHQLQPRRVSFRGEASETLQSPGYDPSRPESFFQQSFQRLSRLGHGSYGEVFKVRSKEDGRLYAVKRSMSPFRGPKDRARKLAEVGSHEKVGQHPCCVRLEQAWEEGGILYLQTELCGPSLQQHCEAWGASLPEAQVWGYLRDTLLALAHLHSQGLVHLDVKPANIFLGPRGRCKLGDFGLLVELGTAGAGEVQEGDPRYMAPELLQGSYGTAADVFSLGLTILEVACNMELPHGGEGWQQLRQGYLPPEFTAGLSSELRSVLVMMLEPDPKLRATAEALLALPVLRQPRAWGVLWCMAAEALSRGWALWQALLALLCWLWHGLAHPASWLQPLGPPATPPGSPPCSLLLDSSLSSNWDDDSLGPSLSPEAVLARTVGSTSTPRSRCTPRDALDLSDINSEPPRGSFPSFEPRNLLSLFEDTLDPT
Assay: Recombinant human Myt1 kinase ADP-Glo enzymatic assay
Settings: recombinant human Myt1 18 nM, ATP 10 μM
pIC50: −log10 of the molar value.

                              sample_smiles                               system_name  result
0  Cc1ccc(O)c(C)c1-n1c(N)c(C(N)=O)c2nc(N3CCC(C(=O)N(C)C)CC3)cnc21  recombinant human Myt1 (Homo sapiens (Human), UniProt Q99640)  > 8.00
1  Cc1ccc(O)c(C)c1-n1c(N)c(C(N)=O)c2c(Cl)c(Cl)cnc21  recombinant human Myt1 (Homo sapiens (Human), UniProt Q99640)  > 8.00
2  CC(=O)N1CCN(c2cnc3c(n2)c(C(N)=O)c(N)n3-c2c(C)ccc(O)c2C)CC1  recombinant human Myt1 (Homo sapiens (Human), UniProt Q99640)  > 8.00

// below: pIC50 requested for another compound
Form: Entry = Cc1ccc(O)cc1-n1c(N)c(C(N)=O)c2nc(C3=CCCN(C(=O)OC(C)(C)C)C3)ccc21 | System = recombinant human Myt1 (Homo sapiens (Human), UniProt Q99640) | pIC50 = ____ 5.70

---

Biological target: recombinant human Myt1 (Homo sapiens (Human), UniProt Q99640)
Assay: Recombinant human Myt1 kinase ADP-Glo enzymatic assay
Conditions: recombinant human Myt1 18 nM, ATP 10 μM
property_name: IC50

Completed entries (count: 8):
                                   molecule   result
0  COCCOCC#Cc1cnc2c(n1)c(-c1c(C)ccc(O)c1C)c(N)n2C(N)=O   191 nM
1  Cc1ccc(O)c(C)c1-n1cc(C(N)=O)c2cc(C3CC3)cnc21  < 10 nM
2  Cc1ccc2c(C(N)=O)c(N)n(-c3c(C)ccc(O)c3C)c2n1  < 10 nM
3  Cc1ccc(O)c(C)c1-n1c(N)c(C(N)=O)c2nc3c(nc21)CCCC3  < 10 nM
4  Cc1ccc(O)c(C)c1-n1c(N)c(C(N)=O)c2ncc(C#CCC3CCOCC3)nc21  < 10 nM
5  C=C(C)c1cnc2c(n1)c(C(N)=O)c(N)n2-c1c(C)ccc(O)c1C  < 10 nM
6  Cc1ccc(O)c(C)c1-n1c(N)c(C(N)=O)c2nc(N3CC4CCC(C3)O4)cnc21  < 10 nM
7  Cc1ccc(O)c(C)c1-n1c(N)c(C(N)=O)c2cc(C3=CCOCC3)cnc21  < 10 nM

# get_value(readout= IC50, system= recombinant human Myt1 (Homo sapiens (Human), UniProt Q99640)) for Cc1ccc(O)c(C)c1-n1c(N)c(C(N)=O)c2nc(-c3cn(C)cn3)cnc21 < 10 nM

Lab note: need IC50 with recombinant human Myt1 (Homo sapiens (Human), UniProt Q99640) for entry Cc1ccc(O)c(C)c1-n1c(N)c(C(N)=O)c2cc(S(=O)(=O)C3CC3)cnc21 , please look it up. < 10 nM

Tell me reported IC50 for Cc1ccc(O)c(C)c1-n1c(N)c(C(N)=O)c2cc(I)cnc21 , tested with recombinant human Myt1 (Homo sapiens (Human), UniProt Q99640). < 10 nM

Lab note: need IC50 for C=Cc1cnc2c(n1)c(C(N)=O)c(N)n2-c1c(C)ccc(O)c1C on recombinant human Myt1 (Homo sapiens (Human), UniProt Q99640), anyone have it? < 10 nM

Notebook entry, recombinant human Myt1 (Homo sapiens (Human), UniProt Q99640) assay: IC50 of Cc1ccc(O)c(C)c1-n1c(N)c(C(N)=O)c2nc(-c3ccnnc3)cnc21 = ? < 10 nM

Kindly state the measured IC50 obtained for Cc1ccc(O)c(C)c1-n1c(N)c(C(N)=O)c2nc(C3=CCCCC3)cnc21 with recombinant human Myt1 (Homo sapiens (Human), UniProt Q99640). < 10 nM

For recombinant human Myt1 (Homo sapiens (Human), UniProt Q99640), provide IC50 of Cc1ccc(O)c(C)c1-n1c(N)c(C(N)=O)c2ncc(C#CC3OCCC3O)nc21 (centres unmarked) please. 14 nM

Notebook: pull reported IC50 for recombinant human Myt1 (Homo sapiens (Human), UniProt Q99640), entry Cc1ccc(O)c(C)c1-n1c(N)c(C(N)=O)c2nc(-c3nccs3)c(C)nc21 < 10 nM

Could you share what IC50 was measured for Cc1ccc(O)c(C)c1-n1c(N)c(S(C)(=O)=O)c2nc(-c3cnccn3)cnc21 , tested on recombinant human Myt1 (Homo sapiens (Human), UniProt Q99640)? > 5000 nM

Sourced from patent US20240207300A1
